Where do these numbers come from? They come from patent US10450368.

# Experimental System: CH505.M19D8gp120
# Method: ELISA
Property Label: LogAUC

{"Binder": "CH556 (antibody, V domains shown, also called CH235.11) VH: QVQLVQSGGTVKSPGTSVTLSCKTSGYNFIDYYIHWVRRAPGQRPELMGYIDPSHGRPDYEGKFRDRISLYRDTSTSVVYMDVRGLRLDDTALYYCVRGGGVEVSSNHYDHWGPGTMVFVSP VL: ETTLTQSPDTLSASPGERVTLSCRAAQSVGSQVAWFRHIRGQPPRLLISGASTRAAGVPARFSGSGSGTDFTLTISGMQSEDFAEYFCQQYHMWWTFGQGTRVDKN", "LogAUC": 0.09}

Turning to the following binder.
Prompt: LogAUC lookup needed for CH555 (antibody, V domains shown, also called CH235.10) VH: QVQLVQSGATVKKPRASVTLSCRTSGYNFIDYFIHWVRRAPGQRLEVMGYIDPSRGRPDYAPNFRDRVSLYRDTSMSIVYLDLRDLTPDDTAIYYCVRSEGTEGTVLHYDHWGPGTRVTVSP VL: EIVLTQSPDTLSASPGERVTLSCRASQSVGTKVAWYRHVRGQPPRLLIYGASTRAAGIPARFSGGGSGTNFTLIINNFQSEDFAEYLCQQYKSWWTFGQGTKVDNK , thanks.
Completion: 0
